system: THP-1; assay: Cell viability assay (Rezasurin), 96 well format; format: cell-based; conditions: Homo sapiens; THP-1 resistant cells; 48 h; DIMATE alone or with H2O2 inducer at fixed concentration (2-ME 100 μM, ATO 1 μM, Daunorubicine 40 nM, Doxorubicine 20 nM, Etoposide 500 nM, Mitoxanthrone 50 nM, Parthenolide 100 nM, Piperlongumine 2 μM); read-out: IC50
Observation type: IC50 (µM)
Provide only the numeric value, understood in µM.

**Query** Entry CSC(=O)C#CC(C)(C)N(C)C [DIMATE] has what IC50?
**Result** 46

Every entry's value here was drawn from patent US10406125B2.
